# kcat/Km per record follows
- Substrate: tributyrin
- Conditions: pH 7; 25 °C

Protein	kcat/Km
unnamed (protein) MLDMPIDPVYYQLAEYFDSLPKFDQFSSAREYREAINRIYEERNRQLSQHERVERVEDRTIKGRNGDIRVRVYQQKPDSPVLVYYHGGGFVICSIESHDALCRRIARLSNSTVVSVDYRLAPEHKFPAAVYDCYDATKWVAENAEELRIDPSKIFVGGDSAGGNLAAAVSIMARDSGEDFIKHQILIYPVVNFVAPTPSLLEFGEGLWILDQKIMSWFSEQYFSREEDKFNPLASVIFADLENLPPALIITAEYDPLRDEGEVFGQMLRRAGVEASIVRYRGVLHGFINYYPVLKAARDAINQIAALLVFD	1.9e+06 M⁻¹ s⁻¹
unnamed (protein) MAKKDEHLRKPEWLKIKLNTNENYTGLKKLMRENNLHTVCEEAKCPNIHECWAVRRTATFMILGSVCTRACRFCAVKTGLPTELDLQEPERVADSVALMNLKHAVITAVARDDQKDGGAGIFAETVRAIRRKSPFTTIEVLPSDMGGNYDNLKTLMDTRPDILNHNIETVRRLTPRVRARATYDRSLEFLRRAKEMQPDIPTKSSIMIGLGETKEEIIEVMDDLLANNVDIMAIGQYLQPTKKHLKVQKYYHPDEFAELKEIAMQKGFSHCEAGPLVRSSYHADEQVNEASKKRQAQA	250000 M⁻¹ s⁻¹
unnamed (protein) MVLKQRANYLGFLIVFFTAFLVEAVPIKRQSNSTVDSLPPLIPSRTSAPSSSPSTTDPEAPAMSRNGPLPSDVETKYGMALNATSYPDSVVQAMSIDGGIRAATSQEINELTYYTTLSANSYCRTVIPGATWDCIHCDATEDLKIIKTWSTLIYDTNAMVARGDSEKTIYIVFRGSSSIRNWIADLTFVPVSYPPVSGTKVHKGFLDSYGEVQNELVATVLDQFKQYPSYKVAVTGHSLGGATALLCALDLYQREEGLSSSNLFLYTQGQPRVGDPAFANYVVSTGIPYRRTVNERDIVPHLPPAAFGFLHAGEEYWITDNSPETVQVCTSDLETSDCSNSIVPFTSVLDHLSYFGINTGLCT	2.4e+06 M⁻¹ s⁻¹
